Numbers sourced from patent US8871934B2.

Give IC50 for every item shown.
- TEST SYSTEM: human PDHK2 (hPDHK2) (Homo sapiens (Human), UniProt Q15119)
- TEST DETAILS: Inhibitory action of PDHK activity in vitro (kinase reaction, residual PDH activity measured)
- Type: biochemical
- CONDITION DESCRIPTION: PDHK inhibitory activity, class symbol of IC50

Response field IC50 (human PDHK2 (hPDHK2) (Homo sapiens (Human), UniProt Q15119)) for item Cn1nnnc1-c1cccc2c1-c1ccccc1C2(O)C(F)(F)F (centres unmarked) [compound 251] : > 1000 nM

Response field IC50 (human PDHK2 (hPDHK2) (Homo sapiens (Human), UniProt Q15119)) for item Cc1cc(-c2cnn(CCO)c2)cc2c1-c1ccccc1C2(O)C(F)(F)F (centres unmarked) [compound 584] : < 100 nM

Response field IC50 (human PDHK2 (hPDHK2) (Homo sapiens (Human), UniProt Q15119)) for item CC(=O)N(C)c1ccc2c(c1)C(O)(C(F)(F)F)c1ccccc1-2 (centres unmarked) [compound 96] : > 1000 nM

Response field IC50 (human PDHK2 (hPDHK2) (Homo sapiens (Human), UniProt Q15119)) for item NC(=O)Cn1cc(-c2cc(Cl)cc3c2-c2ccccc2C3(O)C(F)(F)F)cn1 (centres unmarked) [compound 506] : < 100 nM

Response field IC50 (human PDHK2 (hPDHK2) (Homo sapiens (Human), UniProt Q15119)) for item Cn1cc(-c2cc(C(=O)N3CCC3)cc3c2-c2ccccc2C3(O)C(F)(F)F)cn1 (centres unmarked) [compound 355] : < 100 nM

Response field IC50 (human PDHK2 (hPDHK2) (Homo sapiens (Human), UniProt Q15119)) for item O=C(c1cc(-c2cnn(CCO)c2)c2c(c1)C(O)(C(F)(F)F)c1ccccc1-2)N1CCC1 (centres unmarked) [compound 461] : < 100 nM

Response field IC50 (human PDHK2 (hPDHK2) (Homo sapiens (Human), UniProt Q15119)) for item CC(=O)N(C)C[C@@H](O)COc1cc(-c2cnn(C)c2)c2c(c1)C(O)(C(F)(F)F)c1ccccc1-2 (some centres unmarked) [compound 499] : < 100 nM

Response field IC50 (human PDHK2 (hPDHK2) (Homo sapiens (Human), UniProt Q15119)) for item CN(C)C(=O)CCOc1cc(-c2cnn(C)c2)c2c(c1)C(O)(C(F)(F)F)c1ccccc1-2 (centres unmarked) [compound 455] : < 100 nM

Response field IC50 (human PDHK2 (hPDHK2) (Homo sapiens (Human), UniProt Q15119)) for item CCCNC(=O)c1ccc2c(c1)C(O)(C(F)(F)F)c1ccccc1-2 (centres unmarked) [compound 316] : > 1000 nM

Response field IC50 (human PDHK2 (hPDHK2) (Homo sapiens (Human), UniProt Q15119)) for item Cc1cc(-c2cnn(C3(CO)CCCC3)c2)c2c(c1)[C@@](O)(C(F)(F)F)c1ccccc1-2 (stereo in doubt) [compound 546] : < 100 nM

Response field IC50 (human PDHK2 (hPDHK2) (Homo sapiens (Human), UniProt Q15119)) for item COCCOC1CN(C(=O)c2ccc3c(c2)C(O)(C(F)(F)F)c2ccccc2-3)C1 (centres unmarked) [compound 106] : 100 to 1000 nM

Response field IC50 (human PDHK2 (hPDHK2) (Homo sapiens (Human), UniProt Q15119)) for item Nc1ccc(-c2ccc3c(c2)C(O)(C(F)(F)F)c2ccccc2-3)cc1 (centres unmarked) [compound 193] : 100 to 1000 nM

Response field IC50 (human PDHK2 (hPDHK2) (Homo sapiens (Human), UniProt Q15119)) for item Cn1cc(-c2cc(N3CCOCC3)cc3c2-c2ccccc2C3(O)C(F)(F)F)cn1 (centres unmarked) [compound 569] : < 100 nM

Response field IC50 (human PDHK2 (hPDHK2) (Homo sapiens (Human), UniProt Q15119)) for item Cc1nnc(-c2cccc3c2-c2ccccc2C3(O)C(F)(F)F)o1 (centres unmarked) [compound 267] : > 1000 nM

Response field IC50 (human PDHK2 (hPDHK2) (Homo sapiens (Human), UniProt Q15119)) for item COC(=O)c1cc(Br)c2c(c1)C(O)(C(F)(F)F)c1ccccc1-2 (single isomer, unassigned) [compound 473] : < 100 nM

Response field IC50 (human PDHK2 (hPDHK2) (Homo sapiens (Human), UniProt Q15119)) for item CC(=O)N(CCO)CCOc1ccc2c(c1)C(O)(C(F)(F)F)c1ccccc1-2 (centres unmarked) [compound 379] : 100 to 1000 nM

Response field IC50 (human PDHK2 (hPDHK2) (Homo sapiens (Human), UniProt Q15119)) for item Cn1cc(-c2cc(C(=O)NCCCCO)cc3c2-c2ccccc2C3(O)C(F)(F)F)cn1 (centres unmarked) [compound 345] : 100 to 1000 nM

====

- TEST SYSTEM: human PDHK2 (hPDHK2) (Homo sapiens (Human))
- TEST DETAILS: Inhibitory action of PDHK activity in vitro (kinase reaction, residual PDH activity measured)
- Assay type: biochemical
- CONDITION DESCRIPTION: read-out: PDHK inhibitory activity IC50
- Method: In the case of human PDHK2 (hPDHK2, Genbank Accession No. NM_002611), modified hPDHK2 cDNA wherein FLAG-Tag sequence is added to the N terminal by a polymerase linkage reaction was prepared based on hPDHK2 cDNA clone (pReceiver-M01/PDK2-GeneCopoeia), and cloned into a vector (pET17b-Novagen). The recombinant construct was transformed into Escherichia coli (DH5α-TOYOBO). The recombinant clones were identified, plasmid DNA was isolated and subjected to the DNA sequence analysis. […]
RECORDED ENDPOINT: IC50

Per the record, OC1(C(F)(F)F)c2ccccc2-c2ccc(Cn3cccn3)cc21 (stereo not shown) has IC50 of > 1000 nM

Per the record, Cc1noc(-c2ccc3c(c2)C(O)(C(F)(F)F)c2ccccc2-3)n1 (stereo not shown) has IC50 of 547 nM

Per the record, NC(=O)c1cc(OCCN2CCCC2=O)cc2c1-c1ccccc1C2(O)C(F)(F)F (stereo not shown) has IC50 of 48 nM

Per the record, NC(=O)c1cc(OCCO)cc2c1-c1ccccc1C2(O)C(F)(F)F (stereo not shown) has IC50 of 732 nM

Per the record, OCC(CO)(CO)n1cc(-c2cccc3c2-c2ccccc2C3(O)C(F)(F)F)cn1 (single isomer, unassigned) has IC50 of 31 nM

Per the record, CCn1cc(-c2cc(CO)c3c(c2)C(O)(C(F)(F)F)c2ccccc2-3)cn1 (stereo not shown) [compound 618] has IC50 of 56 nM

Per the record, COC(=O)c1cccc(-c2ccc3c(c2)C(O)(C(F)(F)F)c2ccccc2-3)c1 (stereo not shown) has IC50 of 309 nM

Per the record, CN(C)C(=O)CCOc1cc(-c2cnn(C)c2)c2c(c1)C(O)(C(F)(F)F)c1ccccc1-2 (stereo not shown) has IC50 of 26 nM

Per the record, CNC(=O)Cn1cc(-c2cccc3c2-c2ccccc2C3(O)C(F)(F)F)cn1 (stereo not shown) has IC50 of 44 nM

Per the record, NC(=O)COc1ccc2c(c1)C(O)(C(F)(F)F)c1ccccc1-2 (stereo not shown) has IC50 of 635 nM
